These entries and their values trace back to the supplement of paper PMC11451515.

Tested on: P12-Ichikawa
Experiment: cell viability relative to DMSO control; higher = less cytotoxic
Conditions: HPLM + 10% dialyzed FBS; 48 h; 5.12 µM
measurement label: cell viability (%)
Numbers only, in %.

Examples from the recorded data:
compound	measurement label	unit name	reported result
COc1ccc2c(c1)c(CC(=O)OCC(=O)O)c(C)n2C(=O)c1ccc(Cl)cc1	cell viability	%	112
CNCc1ccc(-c2[nH]c3cc(F)cc4c3c2CCNC4=O)cc1	cell viability	%	122
CCOC(=O)c1cncn1[C@H](C)c1ccccc1	cell viability	%	112

For every record below, what is its cell viability?
1. COc1cc2nc(-c3cc(F)ccc3O)nc(N[C@@H]3CNC[C@H]3C(C)(C)O)c2cc1OC
2. CCCCC(C=O)NC(=O)C(CC(C)C)NC(=O)OCc1ccccc1 (centres undefined)
3. COC1=C2C[C@@H](C)C[C@H](OC)[C@H](O)[C@@H](C)/C=C(\C)[C@H](OC(N)=O)[C@@H](OC)/C=C/C=C(\C)C(=O)NC(=CC1=O)C2=O
4. COC1=CC=C(C=C1O)C/2=C/C(=O)C3=C(O2)C=C(O)C=C3O

OUTPUT:
[80.5, 80.6, 77.4, 86.7]

---

Give cell viability for every item shown.
System: P12-Ichikawa
Test: cell viability relative to DMSO control; higher = less cytotoxic
Conditions: HPLM + 10% dialyzed FBS; 48 h; 0.00234 µM
Answers are plain numbers, in %.

Examples from the recorded data:
molecule	system tested	measurement label	reported result
CNC[C@H](O)c1cccc(O)c1	P12-Ichikawa	cell viability	95.4
Cc1csc(NC(=O)c2sc3nc4c(c(C(F)(F)F)c3c2N)CCC4)n1	P12-Ichikawa	cell viability	102

For every record below, what is its cell viability?
1. CC(O)(C#Cc1ccc2c(c1)N(c1nc(N)ncc1Cl)CC2)c1nccs1 (stereo not drawn)
2. O=C(c1ccc(F)c(F)c1Nc1ccc(I)cc1F)N1CC(O)([C@@H]2CCCCN2)C1
3. CN(C)CCN(C)C(=O)c1ccc(NC(=O)Nc2ccc(-c3nc(N4CCOCC4)c4ccn(CC(F)(F)F)c4n3)cc2)cc1
4. CC[C@H](NC(=O)[C@H](C)NC)C(=O)N1C[C@@H](O)C[C@H]1Cc1c(-c2[nH]c3cc(F)ccc3c2C[C@@H]2C[C@H](O)CN2C(=O)[C@H](CC)NC(=O)[C@H](C)NC)[nH]c2cc(F)ccc12

OUTPUT:
1: 123; 2: 102; 3: 120; 4: 129

For every record below, what is its cell viability?
1. CN1CCC[C@@H]1CCO[C@](C)(c1ccccc1)c1ccc(Cl)cc1
2. C=CCc1cccc(/C=N/NC(=O)CN2CCN(Cc3ccccc3)CC2)c1O

OUTPUT:
1. 100
2. 115

---

Give cell viability for every item shown.
Test system: SEM cells
Experiment: cell viability relative to DMSO control; higher = less cytotoxic
Settings: RPMI 5 mM glucose + 10% FBS; 48 h; 0.00234 µM
One number for each entry, in %.

For every record below, what is its cell viability?
1. COC/1=C/C=C2\C(=C/C1=O)[C@H](CCC3=CC(=C(OC)C(=C23)OC)OC)NC(C)=O
2. COc1cc([C@H]2Oc3cc([C@H]4Oc5cc(O)cc(O)c5C(=O)[C@@H]4O)ccc3O[C@@H]2CO)ccc1O
3. CNC[C@H](O)c1cccc(O)c1

OUTPUT:
[19.2, 118, 55.3]
